The measurements presented in this section are drawn from ChEMBL document CHEMBL4390648.

Listed next: entries and their corresponding mortality at 600 µg/mL.
- System: Mythimna separata
- protocolDescription: Insecticidal activity against Mythimna separata assessed as larval mortality at 600 mg/l by leaf-dip method
- Type: functional
Numbers only here, please. The scale is %.

For orientation, consider the following solved cases.
COc1nc(OC)nc(Sc2ccc(C(=O)O)cc2F)n1 ... 30
COc1cc(OC)nc(Sc2ccc(C(=O)O)cc2F)n1 ... 30
COc1nc(OC)nc(Sc2cccc(Br)c2C#N)n1 ... 75
COc1nc(OC)nc(Sc2ccc(Cl)cc2C(=O)O)n1 ... 40
COc1nc(OC)nc(Sc2ccc(F)cc2C(=O)O)n1 ... 80
COc1nc(OC)nc(Sc2ccc(C#N)cc2Cl)n1 ... 30
COc1cc(OC)nc(Sc2ccc(C(=O)O)cc2Br)n1 ... 50
COc1nc(OC)nc(Sc2ccc(C#N)cc2Br)n1 ... 30

q: Query the reported mortality at 600 µg/mL for Mythimna separata; item: `COc1cc(OC)nc(Sc2ccc(Cl)cc2C(=O)O)n1`
a: 5

q: Give the reported mortality at 600 µg/mL for `COc1nc(OC)nc(Sc2ccc(C(=O)O)cc2Br)n1` (system: Mythimna separata).
a: 10

q: What value of mortality at 600 µg/mL on Mythimna separata does `COc1nc(OC)nc(Sc2cccc(Cl)c2C#N)n1` have?
a: 5

q: // lookup mortality at 600 µg/mL | system=Mythimna separata | key= `COc1nc(OC)nc(Sc2ccc(Br)cc2C(=O)O)n1`
a: 45

q: What mortality at 600 µg/mL appears in the records for this compound with Mythimna separata? `COc1nc(OC)nc(Sc2ccc(C(=O)O)cc2Cl)n1`
a: 20

q: So what mortality at 600 µg/mL did `COc1nc(OC)nc(Sc2ccc(Cl)cc2C#N)n1` get with Mythimna separata?
a: 0

q: Any idea what mortality at 600 µg/mL came out for `COc1cc(OC)nc(Sc2ccc(C(=O)O)cc2Cl)n1` on Mythimna separata?
a: 50

q: Return mortality at 600 µg/mL measured with Mythimna separata given this compound: `COc1nc(OC)nc(Sc2cccc(I)c2C#N)n1`
a: 45

====

- System: Arabidopsis thaliana
- protocolDescription: Inhibition of Arabidopsis thaliana AHAS catalytic subunit using pyruvate as substrate at 100 uM measured after 30 mins by colorimetric method relative to control
propertyMeasured: inhibition (%)
Numbers only here, please. The scale is %.

The following compounds have reported results that may help.
COc1cc(OC)nc(Sc2cccc(Cl)c2C(=O)O)n1 ... 100
COc1nc(OC)nc(Sc2ccc(C(=O)O)cc2Br)n1 ... 30
COc1nc(OC)nc(Sc2ccc(C(=O)O)cc2F)n1 ... 18.7
COc1cc(OC)nc(Sc2cc(C(F)(F)F)ccc2C(=O)O)n1 ... 85.5
COc1cc(OC)nc(Sc2ccc(C(=O)O)cc2Cl)n1 ... 100

q: Return reported inhibition; argument: `COc1nc(OC)nc(Sc2ccc(Cl)cc2C#N)n1`
a: 71.3

q: inhibition for `COc1nc(OC)nc(Oc2cccc(Br)c2)n1` ?
a: 60

q: Quick check: inhibition of `COc1nc(OC)nc(Sc2ccc(C#N)cc2Br)n1` ?
a: 98.3

q: Requested read-out: inhibition. Entry: `COc1cc(OC)nc(Sc2ccc(C#N)c(C(F)(F)F)c2)n1`
a: 86.2

q: Return reported inhibition; argument: `COc1cc(OC)nc(Sc2ccc(Cl)cc2C(=O)O)n1`
a: 100

q: Which inhibition is listed for `COc1nc(OC)nc(Oc2cccc(I)c2)n1` ?
a: 84.7

q: inhibition for `COc1cc(OC)nc(Sc2ccc(C(=O)O)c(C(F)(F)F)c2)n1` ?
a: 77.4

q: I would be grateful if you could share the reported inhibition for `COc1cc(OC)nc(Sc2cc(C(F)(F)F)ccc2C#N)n1` .
a: 91.6

q: If you can, please state the reported inhibition value of `COc1nc(OC)nc(Sc2ccc(F)cc2C#N)n1` .
a: 71.2

q: Item under review: `COc1cc(OC)nc(Sc2ccc(C(=O)O)cc2C(=O)O)n1` . Reported inhibition?
a: 20

====

# inhibition per entry
- Test system: Candida albicans
- protocolDescription: Inhibition of Candida albicans AHAS catalytic subunit at 100 uM using pyruvate as substrate measured after 30 mins by colorimetric method relative to control
Enter your answer as a number in %; do not include the unit.

q: Recorded inhibition of `COc1nc(OC)nc(Oc2cccc(I)c2)n1` , please.
a: 29.4

====

Parameter inhibition at 50 µg/mL: see the listing below.
- Tested on: Sclerotinia sclerotiorum
- protocolDescription: Antifungal activity against Sclerotinia sclerotiorum assessed as reduction in growth at 50 mg/l by mycelium growth rate method relative to control
- Format: functional
Return type: number; implicit unit %.

COc1nc(OC)nc(Sc2ccc(C(=O)O)cc2F)n1 ... 61.1
COc1nc(OC)nc(Sc2ccc(C(=O)O)cc2Cl)n1 ... 69.4
COc1cc(OC)nc(Sc2ccc(Cl)cc2C(=O)O)n1 ... 63.9
COc1nc(OC)nc(Sc2cccc(I)c2C#N)n1 ... 11.1
COc1nc(OC)nc(Sc2ccc(Br)cc2C#N)n1 ... 19.4

q: Need inhibition at 50 µg/mL of `COc1nc(OC)nc(Sc2ccc(Br)cc2C(=O)O)n1` , thanks.
a: 66.7

q: Name the reported inhibition at 50 µg/mL value associated with the compound `COc1nc(OC)nc(Sc2ccc(C#N)cc2Br)n1`
a: 13.9

q: Given the entry `COc1nc(OC)nc(Sc2ccc(F)cc2C(=O)O)n1` , report its measured inhibition at 50 µg/mL.
a: 55.6

q: So what does the record say about inhibition at 50 µg/mL for `COc1nc(OC)nc(Sc2ccc(C#N)cc2F)n1` ?
a: 13.9

q: Which measured inhibition at 50 µg/mL value corresponds to `COc1nc(OC)nc(Sc2cc(Cl)ccc2C#N)n1` ?
a: 13.9

q: So what does the record say about inhibition at 50 µg/mL for `COc1nc(OC)nc(Sc2ccc(C(=O)O)cc2Br)n1` ?
a: 77.8

q: // inhibition at 50 µg/mL lookup, key: `COc1nc(OC)nc(Sc2ccc(F)cc2C#N)n1`
a: 33.3

q: Name the reported inhibition at 50 µg/mL value associated with the compound `N#Cc1c(Cl)c(Cl)c(Cl)c(C#N)c1Cl`
a: 87.6

====

Items are presented alongside their recorded inhibition at 500 µg/mL.
- Test system: Tobacco mosaic virus
- protocolDescription: Antiviral activity against Tobacco mosaic virus inoculated in Nicotiana tabacum leaves assessed as passivation by measuring local lesion numbers at 500 mg/l pre-incubated with virus for 30 mins followed by inoculation and measured up to 4 days
- Format: functional
Give the value in % but do not write % after it.

Look over these answered cases.
COc1nc(OC)nc(Sc2ccc(Cl)cc2C(=O)O)n1 ... 0
COc1cc(OC)nc(Sc2cc(C(F)(F)F)ccc2C#N)n1 ... 35.8
COc1nc(OC)nc(Sc2cccc(I)c2C#N)n1 ... 22.8
COc1cc(OC)nc(Sc2ccc(C(=O)O)cc2Br)n1 ... 0
COc1cc(OC)nc(Sc2ccc(C(=O)O)cc2Cl)n1 ... 0

Consider the record given below.
q: Quick one: inhibition at 500 µg/mL of `COc1nc(OC)nc(Sc2ccc(Cl)cc2C#N)n1` ?
a: 0

====

# inhibition at 500 µg/mL per entry
- System: Tobacco mosaic virus
- protocolDescription: Antiviral activity against Tobacco mosaic virus inoculated in Nicotiana tabacum leaves assessed as passivation by measuring local lesion numbers at 500 mg/l pre-incubated with virus for 30 mins followed by inoculation and measured up to 4 days
- Type: functional
All answers are understood in %, so give the number only.

Past entries and their recorded results:
COc1cc(OC)nc(Sc2ccc(C(=O)O)c(C(F)(F)F)c2)n1 ... 0
COc1nc(OC)nc(Sc2ccc(Br)cc2C#N)n1 ... 0
COc1nc(OC)nc(Sc2ccc(Br)cc2C(=O)O)n1 ... 0
COc1cc(OC)nc(Sc2ccc(C(=O)O)cc2F)n1 ... 46.5
COc1nc(OC)nc(Sc2ccc(F)cc2C(=O)O)n1 ... 0

q: Would you mind telling me what inhibition at 500 µg/mL value was observed for `NC(=O)c1ncn([C@@H]2O[C@H](CO)[C@@H](O)[C@H]2O)n1` ?
a: 37.6

q: Could you share which inhibition at 500 µg/mL value was measured for `COc1nc(OC)nc(Sc2ccc(F)cc2C#N)n1` ?
a: 26.4

q: Using the record for `COc1nc(OC)nc(Sc2ccc(C(=O)O)cc2Br)n1` , report its inhibition at 500 µg/mL.
a: 21.4

q: Fill in: inhibition at 500 µg/mL of `COc1nc(OC)nc(Oc2cccc(I)c2)n1` is ___
a: 17.1

q: # input compound: `COc1nc(OC)nc(Sc2cccc(F)c2C#N)n1` ; wanted: its inhibition at 500 µg/mL
a: 0
